Biological target: Tyrosine-protein kinase receptor TYRO3 (Homo sapiens)
Sequence (whole entry): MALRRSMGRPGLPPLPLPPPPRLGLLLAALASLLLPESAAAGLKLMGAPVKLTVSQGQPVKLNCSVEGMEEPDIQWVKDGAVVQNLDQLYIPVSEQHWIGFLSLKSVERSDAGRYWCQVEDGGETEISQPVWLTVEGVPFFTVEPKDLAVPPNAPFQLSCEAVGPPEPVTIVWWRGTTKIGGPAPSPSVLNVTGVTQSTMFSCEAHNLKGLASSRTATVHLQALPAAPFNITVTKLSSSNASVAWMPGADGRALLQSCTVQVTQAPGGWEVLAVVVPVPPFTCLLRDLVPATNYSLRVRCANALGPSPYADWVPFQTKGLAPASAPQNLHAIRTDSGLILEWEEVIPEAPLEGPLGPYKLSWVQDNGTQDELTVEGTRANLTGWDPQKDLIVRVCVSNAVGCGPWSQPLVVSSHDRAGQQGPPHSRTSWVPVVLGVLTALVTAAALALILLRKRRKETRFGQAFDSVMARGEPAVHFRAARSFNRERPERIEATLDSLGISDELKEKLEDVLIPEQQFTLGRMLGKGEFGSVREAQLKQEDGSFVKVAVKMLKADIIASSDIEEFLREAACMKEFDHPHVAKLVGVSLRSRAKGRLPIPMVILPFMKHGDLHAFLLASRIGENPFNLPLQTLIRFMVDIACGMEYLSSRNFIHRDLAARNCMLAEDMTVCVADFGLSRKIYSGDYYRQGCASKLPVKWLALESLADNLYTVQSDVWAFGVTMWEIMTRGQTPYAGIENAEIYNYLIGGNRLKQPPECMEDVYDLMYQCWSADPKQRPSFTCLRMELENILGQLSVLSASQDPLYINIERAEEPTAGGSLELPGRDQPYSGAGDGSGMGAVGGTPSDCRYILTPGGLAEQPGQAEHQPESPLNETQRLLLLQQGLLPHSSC
Conditions: at 1 µM
Measured residual activity, listed per entry.
Respond with the bare value in %.

O=C1NC(=O)c2c1c1c3ccccc3[nH]c1c1[nH]c3cc(Br)ccc3c21 | 110
O=C(Nc1cccc(Nc2nccc(Nc3cccc(C(F)(F)F)c3)n2)c1)C1CC1 | 70
C[C@@H](N)[C@H]1CC[C@H](C(=O)Nc2ccncc2)CC1 | 123
CC(=O)c1ccc(N2CCOCC2)cc1O | 86
Cc1nc2cc3nc(-c4cccs4)cnc3cc2n1C | 98

Can you share its residual activity? I mean this compound: O=C1NC(=O)/C(=C/c2ccc3c(c2)OC(F)(F)O3)S1 96

---

Biological target: LIM domain kinase 1 (Homo sapiens)
Conditions: at 1 µM
parameter: residual activity (%)
Kindly answer with a numeric value in %, unit omitted.

c1ccc(-c2n[nH]c3c2oc2ccccc23)cc1 | 88

Checklist item: residual activity tested on LIM domain kinase 1 (Homo sapiens), entry c1ccc(-c2n[nH]cc2-c2ccnc3ccccc23)nc1 , value? 90

Give recorded residual activity with LIM domain kinase 1 (Homo sapiens) for the following compound: O=C1c2ccccc2-[n+]2ccc3c([nH]c4ccccc43)c21 91

Hi! What's the reported residual activity for Cc1cncc2cccc(S(=O)(=O)N3CCCN(C(=O)CN)C[C@H]3C)c12 on LIM domain kinase 1 (Homo sapiens)? 92

---

Molecular target: Macrophage colony-stimulating factor 1 receptor (Homo sapiens)
Conditions: at 10 µM
parameter: residual activity
Write the numeric value and follow it with the unit.

Past entries and their recorded results:
N#Cc1cnc2cnc(NCc3cccnc3)cc2c1Nc1ccc(F)c(Cl)c1 | 60%
CC(C)n1cnc2/c(=N/c3cccc(Cl)c3)nc(NCCO)[nH]c21 | 39%

Now consider a different molecule.
Need residual activity, item CCC(=O)Nc1ccc2ncnc(Nc3cccc(Br)c3)c2c1 61%
